Measured enrichment ratio, listed per entry.
B1: PhoQ; a variant is named by its letters at X, in order, P23837 (parent)
chain: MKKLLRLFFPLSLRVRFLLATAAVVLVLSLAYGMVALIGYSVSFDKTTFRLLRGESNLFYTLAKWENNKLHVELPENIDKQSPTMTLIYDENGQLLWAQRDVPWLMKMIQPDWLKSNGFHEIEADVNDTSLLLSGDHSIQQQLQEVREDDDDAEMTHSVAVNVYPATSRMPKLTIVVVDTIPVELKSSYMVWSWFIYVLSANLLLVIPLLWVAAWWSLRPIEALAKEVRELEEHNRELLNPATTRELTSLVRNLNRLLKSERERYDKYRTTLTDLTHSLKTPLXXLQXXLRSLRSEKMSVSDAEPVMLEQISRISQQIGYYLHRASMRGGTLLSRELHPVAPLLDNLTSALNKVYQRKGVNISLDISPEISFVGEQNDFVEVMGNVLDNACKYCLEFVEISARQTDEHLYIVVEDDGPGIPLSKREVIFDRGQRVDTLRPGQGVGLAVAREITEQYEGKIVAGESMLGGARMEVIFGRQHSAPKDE

- Variants of: B1
- Protocol: enrichment ratio after two sorts for PhoP signalling (ratio (wild type AVST 3.29)); higher = more functional
- Measurement Context: with PhoP (E. coli)
In all, about 140,000 sequences were measured (“enrichment ratio after two sorts for PhoP signalling”: median about 0, highest 2% from about 11 on). Many of the other results were omitted from the sample, so the highest values are more common in it than they were.

Mutation List | Result
YTVF | 0.29
FMMA | ≤ 0.25

Need enrichment ratio of "GTAV" , thanks. ≤ 0.25

Need enrichment ratio of "TKIM" , thanks. 15.1

Need enrichment ratio of "AKIQ" , thanks. ≤ 0.25

Need enrichment ratio of "WDYS" , thanks. ≤ 0.25

Need enrichment ratio of "AEIL" , thanks. 28.2

Need enrichment ratio of "GALS" , thanks. 5.05
